Tested on: HCT116 cells
EXPERIMENT DESCRIPTION: MTT assay
Assay type: cell-based
PROTOCOL CONDITIONS: Homo sapiens, HCT-116, 72 h, Table 5b; HCT116 cells, 72 hours
MEASURED ATTRIBUTE: IC50 (nM)

- COc1ccc(CCNc2nc(NCc3ccc(C(=O)Nc4ccccc4N)cc3)nc(NC3CC3)n2)cc1OC: 700
- Nc1nc(N)nc(/C=C/c2ccc(C(=O)Nc3ccccc3N)cc2)n1: 6000
- Nc1ccccc1NC(=O)c1ccc(CNc2ncnc(NCCc3ccccc3)n2)cc1: 900
- Nc1ccccc1NC(=O)c1ccc(CNc2nc(NC3Cc4ccccc4C3)nc(-c3ccccc3)n2)cc1: 3000

P = Nc1nc(NC2Cc3ccccc3C2)nc(OCc2ccc(C(=O)Nc3ccccc3N)cc2)n1
Q = Nc1nc(NCc2ccc(C(=O)Nc3ccccc3N)cc2)nc(-c2ccccc2)n1
Query :: Could you tell me which of these two has the smaller IC50 figure? First: P Second: Q Identify your pick by its label.
Result :: Q

1 = CCCCNc1nc(NCCc2ccccc2)nc(NCc2ccc(C(=O)Nc3ccccc3N)cc2)n1
2 = COc1nc(NCc2ccc(C(=O)Nc3ccccc3N)cc2)nc(NC2Cc3ccccc3C2)n1
Query :: Which of the two items, 1 and 2 , has the greater recorded IC50? Identify your pick by its label.
Result :: 1

Data provenance: patent US7868204B2
